molecular target: p-Akt2 in WM115 cells (Homo sapiens); construct: SureFire assays to detect cellular p-Akt1, p-Akt2 and p-Akt3 levels in WM115 cells (Akt2/3) and LNCaP cells (Akt1); endogenous in cells; host or cells: WM115 (ECACC 91061232), insulin-stimulated; experiment: Phospho-Akt cellular SureFire assay, p-Akt2 in WM115 cells; assay type: cell-based; conditions: insulin stimulated, read-out: Biological Assay 2 IC50 (nM) Akt2 WM115
Measured IC50 values are reported for all entries that follow.
Reply numerically in nM, unit not repeated.

Input line: Endpoint output: IC50 of CN([C@H]1CC[C@H](CC(=O)Nc2cnc(-c3ccc(C4(N)CCC4)cc3)c(-c3ccsc3)c2)CC1)S(C)(=O)=O . Value?
Output line: 1900

* * *

# maps each entry to its IC50
target: p-Akt2 in WM115 cells (Homo sapiens, UniProt P31751); construct: SureFire assays to detect cellular p-Akt1, p-Akt2 and p-Akt3 levels in WM115 cells (Akt2/3) and LNCaP cells (Akt1); endogenous in cells; host or cells: WM115 (ECACC 91061232), insulin-stimulated; assay: Phospho-Akt cellular SureFire assay, p-Akt2 in WM115 cells; assay type: cell-based; conditions: insulin stimulated, read-out: Biological Assay 2 IC50 (nM) Akt2 WM115
Field format: number, assumed nM, no unit text.

The following compounds have reported results that may help.
Input line: Can you share its IC50? I mean this compound: CN(C(=O)C1CC1)[C@H]1CC[C@H](CC(=O)Nc2cnc(-c3ccc(C(C)(C)N)cc3)c(-c3ccsc3)c2)CC1
Output line: 10000

Input line: Sample COC(=O)N(C)[C@H]1CC[C@H](CC(=O)Nc2cc(-c3ccccc3)c(-c3ccc(C4(N)CCC4)cc3)nn2)CC1 — what was its IC50?
Output line: 5000

Input line: Would you kindly share the measured IC50 for C[C@]1(O)C[C@@](N)(c2ccc(-c3nnc(NC(=O)C[C@H]4CC[C@H](N5CCOC5=O)CC4)cc3-c3ccccc3)cc2)C1 ?
Output line: 750

Please look at the following compound next.
Input line: Consider the compound CN(C(=O)C(F)F)[C@H]1CC[C@H](CC(=O)Nc2cnc(-c3ccc(C(C)(C)N)cc3)c(-c3ccccc3)c2)CC1 and give its measured IC50.
Output line: 7100

* * *

biological target: Akt2 (Homo sapiens); construct: unspecified tag, removed (detagged) (cleaved yes); purchased SignalChem and Proteros (Akt2); Merck Millipore (PDK1) 14-452 (PDK1); none given for Akt2; assay: Akt activation assay (PDK1-mediated activation, LANCE Ultra crosstide TR-FRET), Akt2; type: biochemical; details: read-out: Biological Assay 1 IC50 (nM) Akt2
Sequence (P31751 whole entry): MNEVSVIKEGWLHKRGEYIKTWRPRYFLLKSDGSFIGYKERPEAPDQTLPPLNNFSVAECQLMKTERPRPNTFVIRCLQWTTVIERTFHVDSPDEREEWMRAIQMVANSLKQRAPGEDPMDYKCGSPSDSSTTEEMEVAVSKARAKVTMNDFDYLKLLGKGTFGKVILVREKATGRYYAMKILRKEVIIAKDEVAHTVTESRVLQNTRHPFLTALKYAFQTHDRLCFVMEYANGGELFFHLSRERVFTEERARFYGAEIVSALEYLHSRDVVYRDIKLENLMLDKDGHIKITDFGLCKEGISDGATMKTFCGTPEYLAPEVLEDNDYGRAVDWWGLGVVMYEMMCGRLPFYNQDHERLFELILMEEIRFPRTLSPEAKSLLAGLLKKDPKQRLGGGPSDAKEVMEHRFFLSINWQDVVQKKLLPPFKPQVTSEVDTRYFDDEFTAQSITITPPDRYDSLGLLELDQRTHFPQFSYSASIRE
ASSAY ENDPOINT: IC50

Input line: What does the record list as IC50 for COC(=O)N(C)[C@H]1CC[C@H](CC(=O)Nc2cc(-c3ccsc3)c(-c3ccc(C4(N)CC4)c(F)c3)nn2)CC1 [Example A100] ?
Output line: > 30000 nM

Input line: State the recorded IC50 for this entry: CC(=O)N(C)[C@H]1CC[C@H](CC(=O)Nc2cc(-c3ccccc3)c(-c3ccc([C@]4(N)C[C@H](F)C4)cc3)nn2)CC1 [Example 46]
Output line: 440 nM

Input line: Consider the molecule CC(=O)N(C)[C@H]1CC[C@H](CC(=O)Nc2cnc(-c3ccc([C@@H](C)N)cc3)c(-c3ccccc3)c2)CC1 [Example 8] and give its measured IC50.
Output line: 710 nM

Input line: Reported IC50 for N[C@]1(c2ccc(-c3nnc(NC(=O)C[C@H]4CC[C@H](N5CCOC5=O)CC4)cc3-c3ccccc3)cc2)C[C@@H](F)C1 [Example 45] : what is it?
Output line: 380 nM

Input line: Given the molecule C[C@H](N)c1ccc(-c2ncc(NC(=O)C[C@H]3CC[C@H](N(C)S(C)(=O)=O)CC3)cc2-c2ccccc2)cc1 [Example A13] , what is its reported IC50?
Output line: 8100 nM

Input line: Request the reported IC50 associated with CC(=O)N(C(C)C)[C@H]1CC[C@H](CC(=O)Nc2cc(-c3ccccc3)c(-c3ccc([C@]4(N)C[C@](C)(O)C4)cc3)cn2)CC1 [Example 102]
Output line: 140 nM

Input line: Field request: IC50 | item: CC(=O)N(C)[C@H]1CC[C@H](CC(=O)Nc2cc(-c3ccccc3)c(-c3ccc(C4(N)CCC4)cc3)cn2)CC1 [Example 33]
Output line: 540 nM

Input line: Data request, read-out IC50, for CC(C)(C(=O)N[C@H]1CC[C@H](CC(=O)Nc2cnc(-c3ccc(C4(N)COC4)cc3)c(-c3ccccc3)c2)CC1)C(F)(F)F [Example A6]
Output line: 1400 nM

Input line: IC50 for CCC(=O)N(C)[C@H]1CC[C@H](CC(=O)Nc2cc(-c3ccccc3F)c(-c3ccc([C@]4(N)C[C@](C)(O)C4)cc3)cn2)CC1 [Example 95] ?
Output line: 120 nM

Input line: Please give the measured IC50 for this molecule: CC(C)(N)c1ccc(-c2ncc(NC(=O)C[C@H]3CC[C@H](NC(=O)C4CCC4)CC3)cc2-c2ccccc2)cc1 [Example A36]
Output line: 6800 nM

Input line: # IC50 lookup, item CN(C(=O)C1CC1)[C@H]1CC[C@H](CC(=O)Nc2cc(-c3ccccc3)c(-c3ccc([C@]4(N)C[C@H](F)C4)cc3)nn2)CC1 [Example 71]
Output line: 350 nM

Input line: Would you mind telling me what IC50 value was observed for C[C@]1(O)C[C@@](N)(c2ccc(-c3cnc(NC(=O)C[C@H]4CC[C@H](N5CCCC5=O)CC4)cc3-c3ccccc3)cc2)C1 [Example A82] ?
Output line: 91 nM

Input line: What does the data say about its IC50? Entry: CC(=O)N[C@H]1CC[C@H](CC(=O)Nc2cnc(-c3ccc([C@H](N)C(F)F)cc3)c(-c3ccccc3)c2)CC1 [Example A12]
Output line: 16000 nM

* * *

biological target: p-Akt3 in WM115 cells (Homo sapiens, UniProt Q9Y243); construct: SureFire assays to detect cellular p-Akt1, p-Akt2 and p-Akt3 levels in WM115 cells (Akt2/3) and LNCaP cells (Akt1); endogenous in cells; host or cells: WM115 (ECACC 91061232), insulin-stimulated; assay: Phospho-Akt cellular SureFire assay, p-Akt3 in WM115 cells; assay type: cell-based; conditions: insulin stimulated, read-out: Biological Assay 2 IC50 (nM) Akt3 WM115
Sequence (Q9Y243 whole entry): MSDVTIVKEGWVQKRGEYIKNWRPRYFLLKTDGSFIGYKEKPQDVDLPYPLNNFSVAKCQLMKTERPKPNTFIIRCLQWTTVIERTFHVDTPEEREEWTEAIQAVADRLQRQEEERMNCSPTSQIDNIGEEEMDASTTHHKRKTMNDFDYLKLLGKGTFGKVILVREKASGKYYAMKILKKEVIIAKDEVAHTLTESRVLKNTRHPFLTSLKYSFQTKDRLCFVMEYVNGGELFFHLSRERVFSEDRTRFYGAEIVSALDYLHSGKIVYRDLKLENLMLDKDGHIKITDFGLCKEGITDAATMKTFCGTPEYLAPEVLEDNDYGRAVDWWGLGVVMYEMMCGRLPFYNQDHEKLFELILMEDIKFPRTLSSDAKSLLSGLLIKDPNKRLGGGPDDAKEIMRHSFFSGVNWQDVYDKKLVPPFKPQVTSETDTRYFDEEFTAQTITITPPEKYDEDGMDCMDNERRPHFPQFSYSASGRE
Decide using IC50 alone. Strictly below 200 nM: y. Equal to or above 200 nM: n.

Example results:
Input line: State whether 200 nM exceeds IC50 recorded for CN([C@H]1CC[C@H](CC(=O)Nc2cnc(-c3ccc(C(C)(C)N)cc3)c(-c3ccccc3)c2)CC1)S(C)(=O)=O .
Output line: n

Input line: Find out if reported IC50 for CC(C)(N)c1ccc(-c2ncc(NC(=O)C[C@H]3CC[C@H](N4CCOCC4)CC3)cc2-c2ccccc2)cc1 is less than 200 nM
Output line: n

Input line: Threshold test, IC50 < 200 nM: CC(=O)N(C)[C@H]1CC[C@H](CC(=O)Nc2cnc(-c3ccc(C4(N)CCC4)cc3)c(-c3ccccc3)c2)CC1
Output line: y

Input line: Say whether its IC50 is strictly beneath 200 nM. Entry: CC(=O)N(C)[C@H]1CC[C@H](CC(=O)Nc2cc(-c3ccccc3)c(-c3ccc([C@]4(N)C[C@](C)(O)C4)cc3)nn2)CC1
Output line: y

Input line: Check if IC50 falls below 200 nM for CC(C)(C)CC(=O)N[C@H]1CC[C@H](CC(=O)Nc2cnc(-c3ccc(C(C)(C)N)cc3)c(-c3ccccc3)c2)CC1 .
Output line: n

Now take the following compound into account.
Input line: Please state whether IC50 is below 200 nM for CN(C)C(=O)[C@H]1CC[C@H](CC(=O)Nc2cnc(-c3ccc(C(C)(C)N)cc3)c(-c3ccccc3)c2)CC1
Output line: y

* * *

biological target: Akt1 (Homo sapiens); construct: unspecified tag, removed (detagged) (cleaved yes); purchased SignalChem and Proteros (Akt1); Merck Millipore (PDK1) 14-452 (PDK1); none given for Akt1; assay: Akt activation assay (PDK1-mediated activation, LANCE Ultra crosstide TR-FRET), Akt1; assay type: biochemical; details: read-out: Biological Assay 1 IC50 (nM) Akt1
Sequence (P31749 whole entry): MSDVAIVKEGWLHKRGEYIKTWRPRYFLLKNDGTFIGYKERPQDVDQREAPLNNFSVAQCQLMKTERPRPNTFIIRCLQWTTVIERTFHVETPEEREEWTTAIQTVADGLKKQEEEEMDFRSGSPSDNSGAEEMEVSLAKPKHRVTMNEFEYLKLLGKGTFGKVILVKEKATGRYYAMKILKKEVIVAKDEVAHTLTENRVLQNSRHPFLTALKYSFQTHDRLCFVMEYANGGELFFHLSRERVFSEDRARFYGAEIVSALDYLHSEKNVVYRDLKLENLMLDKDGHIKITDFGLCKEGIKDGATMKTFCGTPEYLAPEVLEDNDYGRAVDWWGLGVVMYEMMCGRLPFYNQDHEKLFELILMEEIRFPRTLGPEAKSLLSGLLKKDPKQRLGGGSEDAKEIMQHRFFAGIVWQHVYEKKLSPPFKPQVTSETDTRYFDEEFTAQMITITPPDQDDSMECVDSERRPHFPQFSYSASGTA
ASSAY ENDPOINT: IC50

Use the examples below as a reference point.
Input line: // lookup IC50 | system=Akt1 (Homo sapiens) | key= CC(=O)N(C)[C@H]1CC[C@H](CC(=O)Nc2cc(-c3ccccc3)c(-c3ccc(C(C)(C)N)cc3)nn2)CC1 [Example 30]
Output line: > 30000 nM

Input line: Give IC50 (Akt1 (Homo sapiens)) of the following molecule: COC(=O)N(C)[C@H]1CC[C@H](CC(=O)Nc2cc(-c3ccccc3)c(-c3ccc(C4(N)CC4)cc3)nn2)CC1 [Example A77]
Output line: > 25000 nM

Input line: Lookup: IC50 / Akt1 (Homo sapiens) / CC(C)C(=O)N(C)[C@H]1CC[C@H](CC(=O)Nc2cc(-c3ccccc3)c(-c3ccc([C@]4(N)C[C@](C)(O)C4)cc3)nn2)CC1 [Example A79]
Output line: 3900 nM

Input line: Field: IC50 (Akt1 (Homo sapiens)). Entry: CC(=O)N(C)[C@H]1CC[C@H](CC(=O)Nc2cc(-c3ccccc3F)c(-c3ccc(C4(N)CCC4)cc3)cn2)CC1 [Example A62]
Output line: > 30000 nM

Input line: Given the entry CC(C)(N)c1ccc(-c2ncc(NC(=O)C[C@H]3CC[C@H](N4CCOCC4)CC3)cc2-c2ccccc2)cc1 [Example A18] , what IC50 was observed with Akt1 (Homo sapiens)?
Output line: > 30000 nM

Next:
Input line: Can you look up IC50 on Akt1 (Homo sapiens) for CC(C)C(=O)N(C)[C@H]1CC[C@H](CC(=O)Nc2cc(-c3ccccc3)c(-c3ccc(C(C)(C)N)cc3)nn2)CC1 [Example A85] ?
Output line: > 30000 nM
